- Subject Of Test: FGFR1 (SEQ ID NO: 1, amino acids 458-765) (Homo sapiens (Human), UniProt P11362)
- Sequence (P11362 458-765): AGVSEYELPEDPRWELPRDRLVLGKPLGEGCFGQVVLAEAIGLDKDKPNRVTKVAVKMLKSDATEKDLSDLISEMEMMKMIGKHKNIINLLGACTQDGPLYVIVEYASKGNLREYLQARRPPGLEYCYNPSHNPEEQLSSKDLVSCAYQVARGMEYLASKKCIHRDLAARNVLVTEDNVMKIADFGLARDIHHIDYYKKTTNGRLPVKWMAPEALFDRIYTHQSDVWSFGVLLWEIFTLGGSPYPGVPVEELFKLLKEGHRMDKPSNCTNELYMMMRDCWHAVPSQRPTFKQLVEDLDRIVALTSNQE
- Assay Remarks: LC/MS FGFR1 kobs assay (covalent protein modification)
- Type: binding
- Condition Details: 500 nM FGFR1, 3 μM compound
Assay Endpoint: FGFR1 Enz kobs (min⁻¹)

Examples with answers:
>>> df
                                smiles_code  assay_endpoint  measured_result
0  C=CC(=O)N1CC(C(=O)N2CC3(C2)CN(c2ccc(-c4cc(OC)c5c(C#N)cnn5c4)cn2)C3)C1  FGFR1 Enz kobs          0.00386
1  C=CC(=O)N1CCN(C(=O)N2CCC(n3cc(-c4cc(OC)c5c(C#N)cnn5c4)cn3)CC2)C[C@@H]1CC#N  FGFR1 Enz kobs           0.0029
2  C=CS(=O)(=O)N1CCC(C(=O)N2CCC(n3cc(-c4cc(OC)c5c(C#N)cnn5c4)cn3)CC2)CC1  FGFR1 Enz kobs          0.01483
3  C=CC(=O)Nc1ccc(C(=O)N2CC[C@H](n3cc(-c4cc(OC)c5c(C#N)cnn5c4)cn3)C2)cc1C  FGFR1 Enz kobs          0.00278
4  C=CC(=O)N1CC(C(=O)N2C[C@H]3C[C@@H]2CN3c2ccc(-c3cc(OC)c4c(C#N)cnn4c3)cn2)C1  FGFR1 Enz kobs          0.00291

P. COc1cc(-c2cnn(C3CCN(CC4CN(C(=O)/C=C/CN(C)C)C4)CC3)c2)cn2ncc(C#N)c12
Q. COc1cc(-c2cnn(C3CCN(C(=O)C4CN(C(=O)/C=C/CN5CC[C@H](F)C5)C4)CC3)c2)cn2ncc(C#N)c12
Request: Form: Entry with minimum FGFR1 Enz kobs (choose one): P / Q Give the chosen item's label as your response.
Response: Q

Cited source for all entries: patent US12180207B2
